# Tested on: MDA-MB-231
# experimental-protocol: 3D spheroid (tumorosphere) formation assay, low attachment, serum-free, alamarBlue
# Format: cell-based
# condition-summary: MDA-MB-231 vs Hs 578T 3D spheroid formation, 0.6–40 μM; numbers above bars Fig. 1A,B
Hi! Could you tag entries with KRAS/HRAS mutant cell line DSS3 ratio below 2 as True, and those at or above as False? Much appreciated.

smiles-representation: CC(C)c1ccc2cc(C(F)(F)F)c(=O)c3c(N4CCN(C)CC4)c(C=O)c(c1)c23
class-label: False

smiles-representation: CC(C)c1ccc2cc(C(F)(F)F)c(=O)c3c(N)c(C=O)c(c1)c23
class-label: False

smiles-representation: CC(C)c1ccc2cc(C(F)(F)F)c(=O)c3c(N4CCCCC4)c(C=O)c(c1)c23
class-label: False

smiles-representation: Cc1c(NCCO)c2c(=O)c(C(F)(F)F)cc3ccc(C(C)C)cc1c32
class-label: False

smiles-representation: CC(C)c1ccc2cc(C(F)(F)F)c(=O)c3c(NCCO)c(C=O)c(c1)c23
class-label: False

smiles-representation: Cc1c(N2CCCCC2)c2c(=O)c(C(F)(F)F)cc3ccc(C(C)C)cc1c32
class-label: True

smiles-representation: Cc1c(N2CCC2)c2c(=O)c(C(F)(F)F)cc3ccc(C(C)C)cc1c32
class-label: True

---

# measurement-target: calmodulin (CaM) (Bos taurus)
# experimental-protocol: Fluorescence polarization assay, displacement of F-PMCA peptide from CaM
# condition-summary: read-out: k2/Ki second-order rate constant
Simple rule here: kinact/KI less than 3 M⁻¹ s⁻¹ is met, otherwise not met.

compound: CC(C)c1ccc2cc(C(F)(F)F)c(=O)c3c(N4CCCCC4)c(C=O)c(c1)c23 [Compound 1]
class-label: met
//
compound: CC(C)c1ccc2cc(C(F)(F)F)c(=O)c3c(N4CCOCC4)c(C=O)c(c1)c23 [Compound 2]
class-label: not met
//
compound: Cc1c(N2CCOCC2)c2c(=O)c(C(F)(F)F)cc3ccc(C(C)C)cc1c32 [Compound 9]
class-label: met
//
compound: CC(C)=C[C@H]1C[C@H](C)[C@]2(CC[C@]3(C)C[C@H]4[C@H](C(=O)C[C@@]4(C)O)/C(C=O)=C\C[C@H]32)O1 [OphA, Ophiobolin A, reference compound]
class-label: not met
//
compound: Cc1c(N2CCCCC2)c2c(=O)c(C(F)(F)F)cc3ccc(C(C)C)cc1c32 [Compound 8]
class-label: met
//
compound: CC(C)c1ccc2cc(C(F)(F)F)c(=O)c3c(N4CCN(C)CC4)c(C=O)c(c1)c23 [Compound 3]
class-label: not met

---

# measurement-target: K-RasG12V/CaM (Homo sapiens)
# experimental-protocol: Rluc8-K-RasG12V/GFP2-CaM interaction BRET in HEK293-EBNA cells
# condition-summary: 24-h exposure, A/D plasmid ratio 9/1; read-out: IC50 of Rluc8-K-RasG12V/GFP2-CaM BRET signal
pIC50: −log10 of the molar value.
// values below are reported pIC50
readout-name: pIC50

compound: Cc1c(N2CCCCC2)c2c(=O)c(C(F)(F)F)cc3ccc(C(C)C)cc1c32 [Compound 8]
measurement-target: K-RasG12V/CaM (Homo sapiens)
readout-name: pIC50
assay-result: 4.15
--
compound: CC(C)c1ccc2cc(C(F)(F)F)c(=O)c3c(N4CCCCC4)c(C=O)c(c1)c23 [Compound 1]
measurement-target: K-RasG12V/CaM (Homo sapiens)
readout-name: pIC50
assay-result: 4.51
--
compound: CC(C)=C[C@H]1C[C@H](C)[C@]2(CC[C@]3(C)C[C@H]4[C@H](C(=O)C[C@@]4(C)O)/C(C=O)=C\C[C@H]32)O1 [OphA, Ophiobolin A, reference compound]
measurement-target: K-RasG12V/CaM (Homo sapiens)
readout-name: pIC50
assay-result: 4.92

---

# Test system: MDA-MB-231
# experimental-protocol: 3D spheroid (tumorosphere) formation assay, low attachment, serum-free, alamarBlue
# Assay type: cell-based
# condition-summary: MDA-MB-231 vs Hs 578T 3D spheroid formation, 0.6–40 μM; numbers above bars Fig. 1A,B
readout-name: KRAS/HRAS mutant cell line DSS3 ratio

compound: Cc1c(N)c2c(=O)c(C(F)(F)F)cc3ccc(C(C)C)cc1c32
measurement-target: MDA-MB-231
assay-result: 4.7

compound: CC(C)c1ccc2cc(C(F)(F)F)c(=O)c3c(N4CCC4)c(C=O)c(c1)c23
measurement-target: MDA-MB-231
assay-result: 0.7

compound: CC(C)=C[C@H]1C[C@H](C)[C@]2(CC[C@]3(C)C[C@H]4[C@H](C(=O)C[C@@]4(C)O)/C(C=O)=C\C[C@H]32)O1 [OphA, Ophiobolin A, reference compound]
measurement-target: MDA-MB-231
assay-result: 3.1

compound: Cc1c(N2CCOCC2)c2c(=O)c(C(F)(F)F)cc3ccc(C(C)C)cc1c32
measurement-target: MDA-MB-231
assay-result: 1.3

compound: Cc1c(N2CCN(C)CC2)c2c(=O)c(C(F)(F)F)cc3ccc(C(C)C)cc1c32
measurement-target: MDA-MB-231
assay-result: 0.03

compound: CC(C)c1ccc2cc(C(F)(F)F)c(=O)c3c(N4CCCC4)c(C=O)c(c1)c23
measurement-target: MDA-MB-231
assay-result: 2.0

compound: CC(C)c1ccc2cc(C(F)(F)F)c(=O)c3c(N4CCOCC4)c(C=O)c(c1)c23
measurement-target: MDA-MB-231
assay-result: 3.3

---

# measurement-target: calmodulin (CaM) (Bos taurus)
pKi: −log10 of the molar value.
readout-name: pKi

compound: Cc1c(N2CCCCC2)c2c(=O)c(C(F)(F)F)cc3ccc(C(C)C)cc1c32
readout-name: pKi
assay-result: 4.41
//
compound: CC(C)c1ccc2cc(C(F)(F)F)c(=O)c3c(N4CCOCC4)c(C=O)c(c1)c23
readout-name: pKi
assay-result: 4.89
//
compound: CC(C)c1ccc2cc(C(F)(F)F)c(=O)c3c(N4CCCCC4)c(C=O)c(c1)c23
readout-name: pKi
assay-result: 4.28
//
compound: CC(C)=C[C@H]1C[C@H](C)[C@]2(CC[C@]3(C)C[C@H]4[C@H](C(=O)C[C@@]4(C)O)/C(C=O)=C\C[C@H]32)O1 [OphA, Ophiobolin A, reference compound]
readout-name: pKi
assay-result: 4.10
//
compound: CC(C)c1ccc2cc(C(F)(F)F)c(=O)c3c(N4CCN(C)CC4)c(C=O)c(c1)c23
readout-name: pKi
assay-result: 4.96
//
compound: Cc1c(N2CCOCC2)c2c(=O)c(C(F)(F)F)cc3ccc(C(C)C)cc1c32
readout-name: pKi
assay-result: 3.64

Cited source for all entries: paper PMC8296985
